These entries and their values trace back to patent US20190367619A1.

Recorded log10(koff) for the following binders
- measuredOn: T1, human galectin-10-His (recombinant human galectin-10 with TEV-cleavable N-terminal His-tag) (human)
- T1 construct: SEC-MALLS: dimer in solution; also called Gal10-His; humanGal10-His
- T1 chain: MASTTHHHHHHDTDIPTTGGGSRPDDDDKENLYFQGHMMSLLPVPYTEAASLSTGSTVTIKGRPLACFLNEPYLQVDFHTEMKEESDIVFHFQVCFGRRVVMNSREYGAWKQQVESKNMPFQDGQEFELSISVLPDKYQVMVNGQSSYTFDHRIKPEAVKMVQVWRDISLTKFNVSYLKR
- protocolDetails: SPR Biacore T3000, scFv-hFc captured by anti-human Fc, galectin-10-His as analyte
experimentalReadout: log10(koff) (log10 of the value in s⁻¹)

{"binder": "1A12 scFv-human Fc (Fc fusion, about 100 kDa on SDS-PAGE; also called 1A12 ScFv-hFc; not shown: CH2-CH3 constant domains of human IgG1 (vector pUPEX50)) scFv: QVQLVESGGGLVQPGGSLRVSCAASGFTFSSYYMSWVRQAPGKGLEWVSAINSGGGSTYYADSVKGRFTISRDNAKNTLYLQMNSLKSEDTAVYYCVQNGGIWSFGSWGQGTQVTVSSGGGGSGGGGSGGGGSSSALTQPSAISVSLGQTARITCQGGNFGYYYVSWYQQKPGQAPVQVIYGDSNRPSGIPERFSGSSSGGTATLTISGAQAEDEADYYCLSYESSDYPVFGGGTHLTVL", "experimentalReadout": "log10(koff)", "val": -2.50}
{"binder": "2E11 scFv-human Fc (Fc fusion, about 100 kDa on SDS-PAGE; also called 2E11 ScFv-hFc; not shown: CH2-CH3 constant domains of human IgG1 (vector pUPEX50)) scFv: EVQLVESGGGLVQPGGSLRLSCAASGFTFSSYAMSWVRQAPGKGLEWVSPINSGSDSASYVDSVKGRFTISRDNAKNTLYLQMNSLKPEDTAVYYCAKARTSVVAGGMDYWGKGTLVTVSSGGGGSGGGGSGGGGSQSALTQPSAVSVSLGQTARITCQGGKFGSYYVSWYQQKPGQAPVMVIYKDNERPSGIPERFSGSSSGSTSTLTISGAQAEDEGTYYCQSGSSSDNIVFGGGTELTVF", "experimentalReadout": "log10(koff)", "val": -1.95}
{"binder": "4G05 scFv-human Fc (Fc fusion, about 100 kDa on SDS-PAGE; also called 4G05 ScFv-hFc; not shown: CH2-CH3 constant domains of human IgG1 (vector pUPEX50)) scFv: QLQVVESGGGLVQTGGSLTLSCTTSGFTFSRYWMIWVRQAPGKGLEWVSSIYNDGGNTYYADSVKGRFTISRDNSENTLYLQMNSLKSEDTAVYYCAKLKAAYYGMDYWGKGTLVTVSSGGGGSGGGGSGGGGSSSALTQPSAVSVSLGQTARITCQGANLGRYYGIWYQQKPGQAPVQVIYGDSNRPSGIPERFSGSSSGGTATLTISGAQAEDEADYYCQSYESSTSPVFGGGTHLTVL", "experimentalReadout": "log10(koff)", "val": -1.36}
{"binder": "2B11 scFv-human Fc (Fc fusion, about 100 kDa on SDS-PAGE; also called 2B11 ScFv-hFc; not shown: CH2-CH3 constant domains of human IgG1 (vector pUPEX50)) scFv: QVQLQESGPGLVKPSQTLSLTCTVSGGSITTNYYYWSWIRQPPGKGLEWMGAIAYSGSTYYSPSLKSRTSISRDTSKNQFTLQLSSVTPEDTAVYYCARAPYGISREYDYWGQGTQVTVSSGGGGSGGGGSGGGGSHSAVTQPSAVSVSLGQTARITCQGGKFGRYYASWYQQKPGQAPVLVIYKDSERPSGIPERFSGSSSGDTATLSISGAQAEDEADYFCQSGRSSDNAVFGGGTHLTVL", "experimentalReadout": "log10(koff)", "val": -1.74}
{"binder": "5E12 scFv-human Fc (Fc fusion, about 100 kDa on SDS-PAGE; also called 5E12 ScFv-hFc; not shown: CH2-CH3 constant domains of human IgG1 (vector pUPEX50)) scFv: QLQLVESGGGLVQPGGSLRLSCVASGFTFRNYPMTWVRQAPGKGPEWVSAINGGGDIPYYADSVKGRFTISRDNAKNTVYLQMDSLKPEDTAMYYCAKQKWGYDPRRTDFEFRGQGTQVTVSSGGGGSGGGGSGGGGSETVPTQSPSSVTASVGEKVTITCKSSQSVRIESNHKTYLNWYQQRPGRGPRLLIYDASSRESGIPDRFSGSGSTSDFTLTISSVQPEDAAVYYCQQAYAAPTFGQGTKLEIK", "experimentalReadout": "log10(koff)", "val": -2.75}
